Examples of compounds with documented IC50 follow.
tested-target: KRAS WT (Homo sapiens, UniProt P01116+P62937)
Sequence (P01116 1-169 isoform P01116-2 limits assumed): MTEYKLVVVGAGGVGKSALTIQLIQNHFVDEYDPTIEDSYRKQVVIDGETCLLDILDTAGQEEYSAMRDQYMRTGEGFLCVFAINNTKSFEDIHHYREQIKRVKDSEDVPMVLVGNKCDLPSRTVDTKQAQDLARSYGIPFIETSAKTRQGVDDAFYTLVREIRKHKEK
Sequence (P62937 whole entry): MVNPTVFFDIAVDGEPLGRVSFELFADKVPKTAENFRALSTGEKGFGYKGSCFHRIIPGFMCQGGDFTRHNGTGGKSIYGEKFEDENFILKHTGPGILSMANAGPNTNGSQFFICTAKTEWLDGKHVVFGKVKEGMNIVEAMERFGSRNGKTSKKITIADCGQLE
procedure-text: Disruption of BRAF RBD interaction with Ras (FRET / MOA assay, with Cyclophilin A)
Type: biochemical
experimental-conditions: KRAS WT; read-out: KRAS WT FRET data IC50

{"compound": "CCn1c(-c2cccnc2[C@H](C)OC)c2c3cc(ccc31)-c1cc(O)cc(c1)C[C@H](NC(=O)[C@H](C(C)C)N(C)C(=O)[C@H]1C[C@H]1C)C(=O)N1CCC[C@H](N1)C(=O)OCC(C)(C)C2", "tested-target": "KRAS WT (Homo sapiens, UniProt P01116+P62937)", "val": "10 to 100 nM"}
{"compound": "CC#CC(=O)N1CC[C@H](C(=O)N(C)[C@H](C(=O)N[C@H]2Cc3nc(cs3)-c3ccc4c(c3)c(c(-c3cccnc3[C@H](C)OC)n4CC)CC(C)(C)COC(=O)[C@@H]3CCCN(N3)C2=O)C(C)C)C1", "tested-target": "KRAS WT (Homo sapiens, UniProt P01116+P62937)", "val": "1000 to 10000 nM"}
{"compound": "CCn1c(-c2cccnc2[C@H](C)OC)c2c3cc(ccc31)-c1cc(O)cc(c1)C[C@H](NC(=O)[C@@H]1C[C@H]1C)C(=O)N1CCC[C@H](N1)C(=O)OCC(C)(C)C2", "tested-target": "KRAS WT (Homo sapiens, UniProt P01116+P62937)", "val": "1000 to 10000 nM"}
{"compound": "CCn1c(-c2cccnc2[C@H](C)OC)c2c3cc(ccc31)-c1cc(O)cc(c1)C[C@H](NS(=O)(=O)CCN(C)C)C(=O)N1CCC[C@H](N1)C(=O)OCC(C)(C)C2 (racemic)", "tested-target": "KRAS WT (Homo sapiens, UniProt P01116+P62937)", "val": "> 10000 nM"}
{"compound": "CCn1c(-c2cccnc2[C@H](C)OC)c2c3cc(ccc31)-c1csc(n1)C[C@H](NC(=O)[C@H](C(C)C)N(C)C(=O)N1CCC3(CN(C)C3)C1)C(=O)N1CCC[C@H](N1)C(=O)OCC(C)(C)C2 (atropisomer, axis not shown)", "tested-target": "KRAS WT (Homo sapiens, UniProt P01116+P62937)", "val": "10 to 100 nM"}
{"compound": "CCn1c(-c2cccnc2[C@H](C)OC)c2c3cc(ccc31)-c1cc(O)cc(c1)C[C@H](NC(=O)[C@H](C(C)C)N(C)C(=O)[C@H]1CCN(C(=O)CN)C1)C(=O)N1CCC[C@H](N1)C(=O)OCC(C)(C)C2", "tested-target": "KRAS WT (Homo sapiens, UniProt P01116+P62937)", "val": "10 to 100 nM"}
{"compound": "CCn1c(-c2cccnc2[C@H](C)OC)c2c3cc(ccc31)-c1cc(O)cc(c1)C[C@H](NC(=O)[C@H](C(C)C)N(C)C(=O)[C@H]1CC1(F)F)C(=O)N1CCC[C@H](N1)C(=O)OCC(C)(C)C2", "tested-target": "KRAS WT (Homo sapiens, UniProt P01116+P62937)", "val": "10 to 100 nM"}
{"compound": "CCn1c(-c2cccnc2[C@H](C)OC)c2c3cc(ccc31)-c1csc(n1)C[C@H](NC(=O)[C@H](C(C)C)N(C)C(=O)N(C)C1(COC)COC1)C(=O)N1CCC[C@H](N1)C(=O)OCC(C)(C)C2", "tested-target": "KRAS WT (Homo sapiens, UniProt P01116+P62937)", "val": "100 to 1000 nM"}
{"compound": "CCn1c(-c2cccnc2[C@H](C)OC)c2c3cc(ccc31)-c1csc(n1)C[C@H](NC(=O)[C@@H](OC(=O)N1CC(OC)C1)C(C)C)C(=O)N1CCC[C@H](N1)C(=O)OCC(C)(C)C2", "tested-target": "KRAS WT (Homo sapiens, UniProt P01116+P62937)", "val": "100 to 1000 nM"}
{"compound": "C=CC(=O)N1CC(OC[C@H](C(=O)N[C@H]2Cc3cc(F)cc(c3)-c3ccc4c(c3)c(c(-c3cccnc3[C@H](C)OC)n4CC)CC(C)(C)COC(=O)[C@@H]3CCCN(N3)C2=O)C(C)C)C1 (atropisomer, axis not shown)", "tested-target": "KRAS WT (Homo sapiens, UniProt P01116+P62937)", "val": "1000 to 10000 nM"}

Input: Give recorded IC50 with KRAS WT (Homo sapiens, UniProt P01116+P62937) for the following compound: CCn1c(-c2cc(N3CCN(C)CC3)cnc2[C@H](C)OC)c2c3cc(ccc31)-c1cc(O)cc(c1)C[C@H](NC(=O)[C@H](C(C)C)N(C)C(=O)[C@@H]1OCC[C@@H]1c1ccccc1)C(=O)N1CCC[C@H](N1)C(=O)OCC(C)(C)C2 (atropisomer, axis not shown)
Output: < 10 nM

Input: Give recorded IC50 with KRAS WT (Homo sapiens, UniProt P01116+P62937) for the following compound: CCn1c(-c2cc(N3CCN(C)CC3)cnc2[C@H](C)OC)c2c3cc(ccc31)-c1csc(n1)C[C@H](NC(=O)[C@H](C(C)C)N(C)C(=O)N1CCOCC1)C(=O)N1CCC[C@H](N1)C(=O)OCC(C)(C)C2 (atropisomer, axis not shown)
Output: 10 to 100 nM

Input: Give recorded IC50 with KRAS WT (Homo sapiens, UniProt P01116+P62937) for the following compound: CCn1c(-c2cccnc2[C@H](C)OC)c2c3cc(ccc31)-c1cc(O)cc(c1)C[C@H](NC(=O)[C@H](C(C)C)N(C)C(=O)[C@@H]1OC[C@@H]3CCC[C@@H]31)C(=O)N1CCC[C@H](N1)C(=O)OCC(C)(C)C2
Output: 10 to 100 nM

Input: Give recorded IC50 with KRAS WT (Homo sapiens, UniProt P01116+P62937) for the following compound: CCn1c(-c2cccnc2[C@H](C)OC)c2c3cc(ccc31)-c1cccc(c1)C[C@H](NC(=O)[C@H](C(C)C)N(C)C(=O)[C@H]1CCN(C(=O)CN(C)C)C1)C(=O)N1CCC[C@H](N1)C(=O)OCC(C)(C)C2
Output: 1000 to 10000 nM

Input: Give recorded IC50 with KRAS WT (Homo sapiens, UniProt P01116+P62937) for the following compound: CCn1c(-c2cccnc2[C@H](C)OC)c2c3cc(ccc31)-c1csc(n1)C[C@H](NC(=O)[C@H](C(C)C)N(C)C(=O)N1CCN(C(=O)CCN(C)C)CC1)C(=O)N1CCC[C@H](N1)C(=O)OCC(C)(C)C2
Output: 10 to 100 nM

Input: Give recorded IC50 with KRAS WT (Homo sapiens, UniProt P01116+P62937) for the following compound: CCn1c(-c2cccnc2COC)c2c3cc(ccc31)-c1cc(O)cc(c1)C[C@H](NC(=O)[C@H](C(C)C)N(C)C(=O)[C@H]1CCN(C(=O)/C=C\CN(C)C)C1)C(=O)N1CCC[C@H](N1)C(=O)OCC(C)(C)C2
Output: 100 to 1000 nM

Input: Give recorded IC50 with KRAS WT (Homo sapiens, UniProt P01116+P62937) for the following compound: C=CC(=O)N1CC[C@H](C(=O)N(C)[C@H](C(=O)N[C@H]2Cc3cc(O)cc(c3)-c3ccc4c(c3)c(c(-c3ccccc3CN(C)C)n4CC)CC(C)(C)COC(=O)[C@@H]3CCCN(N3)C2=O)C(C)C)C1
Output: 100 to 1000 nM
